Every entry's value here was drawn from the RNAGym collection of RNA variant scans (doi:10.1073/pnas.2313332121).

Quick reference for polymerase ribozyme fitness (log ratio) among some variants
B1: TPR t1 (parent)
chain: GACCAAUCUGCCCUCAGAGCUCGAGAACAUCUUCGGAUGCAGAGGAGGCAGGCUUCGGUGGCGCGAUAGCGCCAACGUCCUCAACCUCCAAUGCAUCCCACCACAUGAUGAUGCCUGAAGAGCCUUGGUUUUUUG

# Variants of: B1
# experiment.notes: polymerase ribozyme fitness, log enrichment relative to wild type (log ratio); higher = more active; in vitro selection for triplet polymerase activity
Reply with just the number.

# residue.change, value.measured
records = [
    ("A43U A74C", -1.55),
    ("U9C C114A U129C", -1.92),
    ("G52A G69A G93U C123U", -3.78),
    ("G60C C114A C115G G122C U133C", -4.6),
    ("A18C A43U", 0.3),
]

Which polymerase ribozyme fitness (log ratio) reading was recorded for the variant A16G C64U G77U ?
-1.55

Consider the variant shown here: C40A G71U U131A What is its recorded polymerase ribozyme fitness (log ratio)?
-2.31

I'd like to know its polymerase ribozyme fitness (log ratio). The variant in question is A105C G120A A121U
-1.51

I am curious: what polymerase ribozyme fitness (log ratio) value has been reported for C3A C8G C88U A90C G110A U132A ?
-2.77

Field request: polymerase ribozyme fitness (log ratio) | item: A18U A74U
-3.3

Look up polymerase ribozyme fitness (log ratio): A46G C123U
0.893
